Consider the following molecules and their measured Log Reduction readings.
Tested on: S. epidermidis (derived from ATCC ® 14990 ™)
Experiment: Bacteriostasis, log reduction
Type: cell-based
Conditions: S. epidermidis ATCC 14990; 24 h
# output: bare number, no unit

Sample records with Log Reduction:
Oc1nc(-c2ccc(C(F)(F)F)cc2)nc2c1CSCC2 [XAV939, reference compound]	0.1
CC(C)(OCCO)c1ccc(-c2nc3c(c(=O)[nH]2)CSCC3)cc1	2.0
O=c1[nH]c(-c2ccc(-c3ccc(Br)nc3)cc2)nc2c1CSCC2	0.4

Using known records, supply Log Reduction for `O=c1[nH]c(-c2ccc(-c3ccc(B(O)O)cc3)cc2)nc2c1CSCC2` 0.8

Using known records, supply Log Reduction for `COC(=O)NCCOC(C)(C)c1ccc(-c2nc3c(c(=O)[nH]2)CSCC3)cc1` 2.0

###

Tested on: E. faecalis (derived from ATCC ® 19433 ™)
Assay: Bacteriostasis, log reduction
Assay type: cell-based
Conditions: E. faecalis ATCC 19433; 24 h
Assign TRUE whenever Log Value does not fall below 5; assign FALSE whenever it does.

Oc1nc(-c2ccc(C(F)(F)F)cc2)nc2c1CSCC2 [XAV939, reference compound]	TRUE
O=c1[nH]c(-c2ccc(-c3ccc(Br)nc3)cc2)nc2c1CSCC2 [Compound 7]	TRUE
O=c1[nH]c(-c2ccc(B(O)O)cc2)nc2c1CSCC2 [Compound 1]	FALSE

Identify whether the reported Log Value of the following molecule is 5 or greater: CC(C)(OCCO)c1ccc(-c2nc3c(c(=O)[nH]2)CSCC3)cc1 [Compound 8] TRUE

Identify whether the reported Log Value of the following molecule is 5 or greater: O=c1[nH]c(-c2ccc(-c3ccc(B(O)O)cc3)cc2)nc2c1CSCC2 [Compound 10] FALSE

Identify whether the reported Log Value of the following molecule is 5 or greater: COC(=O)NCCOC(C)(C)c1ccc(-c2nc3c(c(=O)[nH]2)CSCC3)cc1 [Compound 18] TRUE

###

Test system: S. aureus (MRSA) (derived from ATCC ® 33593 ™)
Assay: Bacteriostasis, log reduction
Type: cell-based
Details: S. aureus (MRSA) ATCC 33593; 24 h
endpoint: Log Value
# output: bare number, no unit

Sample records with Log Value:
O=c1[nH]c(-c2ccc(-c3ccc(Br)nc3)cc2)nc2c1CSCC2	3.4
Oc1nc(-c2ccc(C(F)(F)F)cc2)nc2c1CSCC2 [XAV939, reference compound]	4.9
CC(C)(OCCO)c1ccc(-c2nc3c(c(=O)[nH]2)CSCC3)cc1	6.5
O=c1[nH]c(-c2ccc(B(O)O)cc2)nc2c1CSCC2	4.0
COC(=O)NCCOC(C)(C)c1ccc(-c2nc3c(c(=O)[nH]2)CSCC3)cc1	3.2

Now take the following compound into account.
Using known records, supply Log Value for `O=c1[nH]c(-c2ccc(-c3ccc(B(O)O)cc3)cc2)nc2c1CSCC2` 4.5

###

System: HEK293 SuperTOPFlash reporter cells, Wnt promoter
Assay: HEK CELL Wnt Assay (luciferase reporter)
Format: cell-based
Details: serial dilutions, with or without 50 ng/mL Wnt3a; 18 h
Lab note - cut at 400 nM for IC50: Criterion met if strictly below, Criterion not met if not.

Illustrative cases are given below, each with its answer.
O=c1[nH]c(-c2ccc(B(O)O)cc2)nc2c1CSCC2 [Compound 1]	Criterion not met
O=c1[nH]c(-c2cc(F)c(-c3ccc(Br)nc3)c(F)c2)nc2c1CSCC2 [Compound 21]	Criterion not met
O=c1[nH]c(-c2ccc(-c3ncc(B(O)O)cn3)cc2)nc2c1CSCC2 [Compound 24]	Criterion not met
COC(=O)NCCOC(C)(C)c1ccc(-c2nc3c(c(=O)[nH]2)CSCC3)cc1 [Compound 18]	Criterion met

Is it true that IC50 reported for O=c1[nH]c(/C=C/c2ccc(C(F)(F)F)cc2)nc2c1CSCC2 [Compound 6] is less than 400 nM? Criterion not met

Is it true that IC50 reported for O=c1[nH]c(-c2c(F)cc(-c3ccc(B(O)O)cc3)cc2F)nc2c1CSCC2 [Compound 25] is less than 400 nM? Criterion not met

Is it true that IC50 reported for O=c1[nH]c(/C=C/c2ccc(C(F)(F)F)c(B(O)O)c2)nc2c1CSCC2 [Compound 5] is less than 400 nM? Criterion not met

Is it true that IC50 reported for CC(C)(OCCO)c1ccc(-c2ccc(-c3nc4c(c(=O)[nH]3)CSCC4)cc2)cc1 [Compound 12] is less than 400 nM? Criterion met

Is it true that IC50 reported for O=c1[nH]c(-c2cc(F)c(B(O)O)c(F)c2)nc2c1CSCC2 [Compound 14] is less than 400 nM? Criterion not met

Is it true that IC50 reported for O=c1[nH]c(-c2ccc(-c3cnc(OCCO)nc3)cc2)nc2c1CSCC2 [Compound 11] is less than 400 nM? Criterion met

Is it true that IC50 reported for CC(C)(OCCO)c1ccc(-c2nc3c(c(=O)[nH]2)CSCC3)cc1 [Compound 8] is less than 400 nM? Criterion met

###

System: E. faecalis (derived from ATCC ® 19433 ™)
Test: Bacteriostasis, log reduction
Format: cell-based
Conditions: E. faecalis ATCC 19433; 72 h
endpoint: Average result

O=c1[nH]c(-c2ccc(-c3ccc(B(O)O)cc3)cc2)nc2c1CSCC2	<200
Oc1nc(-c2ccc(C(F)(F)F)cc2)nc2c1CSCC2 [XAV939, reference compound]	1.7 × 10^5

Using known records, supply Average result for `O=c1[nH]c(-c2ccc(-c3ccc(Br)nc3)cc2)nc2c1CSCC2` 6.9 × 10^5

Using known records, supply Average result for `COC(=O)NCCOC(C)(C)c1ccc(-c2nc3c(c(=O)[nH]2)CSCC3)cc1` 1.9 × 10^5

Using known records, supply Average result for `CC(C)(OCCO)c1ccc(-c2nc3c(c(=O)[nH]2)CSCC3)cc1` 6.5 × 10^4

Using known records, supply Average result for `O=c1[nH]c(-c2ccc(B(O)O)cc2)nc2c1CSCC2` 1.1 × 10^4

###

System: E. coli (derived from ATCC ® 8739 ™)
Assay: Bacteriostasis, log reduction
Format: cell-based
Conditions: E. coli ATCC 8739; 24 h
Consider the following compounds and their measured Log Value readings.
# output: bare number, no unit

Sample records with Log Value:
O=c1[nH]c(-c2ccc(B(O)O)cc2)nc2c1CSCC2	4.1
Oc1nc(-c2ccc(C(F)(F)F)cc2)nc2c1CSCC2 [XAV939, reference compound]	3.4
O=c1[nH]c(-c2ccc(-c3ccc(Br)nc3)cc2)nc2c1CSCC2	4.9
CC(C)(OCCO)c1ccc(-c2nc3c(c(=O)[nH]2)CSCC3)cc1	3.5

Using known records, supply Log Value for `COC(=O)NCCOC(C)(C)c1ccc(-c2nc3c(c(=O)[nH]2)CSCC3)cc1` 2.7

###

Biological target: Tankyrase 2 (TNKS2) (Homo sapiens, UniProt Q9H2K2)
Sequence (Q9H2K2 1-1166): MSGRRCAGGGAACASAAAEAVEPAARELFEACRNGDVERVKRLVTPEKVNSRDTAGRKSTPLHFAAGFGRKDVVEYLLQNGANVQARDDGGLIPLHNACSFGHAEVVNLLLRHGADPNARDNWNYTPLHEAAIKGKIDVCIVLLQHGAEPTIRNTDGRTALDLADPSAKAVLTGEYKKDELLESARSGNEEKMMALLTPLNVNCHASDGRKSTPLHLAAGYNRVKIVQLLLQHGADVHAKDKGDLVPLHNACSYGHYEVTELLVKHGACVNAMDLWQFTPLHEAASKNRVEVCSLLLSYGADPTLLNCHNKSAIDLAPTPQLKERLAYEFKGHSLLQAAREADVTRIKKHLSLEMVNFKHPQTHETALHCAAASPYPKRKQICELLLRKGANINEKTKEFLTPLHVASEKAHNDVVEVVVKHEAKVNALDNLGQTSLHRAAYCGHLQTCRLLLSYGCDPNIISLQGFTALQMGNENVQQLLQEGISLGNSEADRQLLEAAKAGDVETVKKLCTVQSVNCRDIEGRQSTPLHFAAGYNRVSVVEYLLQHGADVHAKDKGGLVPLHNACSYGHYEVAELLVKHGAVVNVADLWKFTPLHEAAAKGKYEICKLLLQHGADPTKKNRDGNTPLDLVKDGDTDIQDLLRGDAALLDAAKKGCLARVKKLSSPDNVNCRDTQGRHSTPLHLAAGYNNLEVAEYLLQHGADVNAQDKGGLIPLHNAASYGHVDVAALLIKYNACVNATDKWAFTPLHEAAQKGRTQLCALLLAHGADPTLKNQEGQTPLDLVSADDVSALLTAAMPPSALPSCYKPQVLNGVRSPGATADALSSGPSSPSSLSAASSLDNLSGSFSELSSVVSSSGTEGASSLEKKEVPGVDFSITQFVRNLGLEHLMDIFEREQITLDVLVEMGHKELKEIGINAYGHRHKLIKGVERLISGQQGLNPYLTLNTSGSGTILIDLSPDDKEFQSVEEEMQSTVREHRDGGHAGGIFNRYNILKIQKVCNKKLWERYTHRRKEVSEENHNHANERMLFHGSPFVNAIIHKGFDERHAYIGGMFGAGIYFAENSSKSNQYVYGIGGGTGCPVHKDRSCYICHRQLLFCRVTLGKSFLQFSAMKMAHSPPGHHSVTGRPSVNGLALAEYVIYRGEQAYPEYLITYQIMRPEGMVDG
Lab note - cut at 10 nM for IC50: class 1 if strictly below, class 0 if not.

COC(=O)NCCOC(C)(C)c1ccc(-c2ccc(-c3nc4c(c(=O)[nH]3)CSCC4)cc2)cc1	class 1
O=c1[nH]c(-c2ccc(-c3nc4c(c(=O)[nH]3)CSCC4)cc2)no1	class 0
COC(=O)NCCOC(C)(C)c1ccc(-c2nc3c(c(=O)[nH]2)CSCC3)cc1C#N	class 0

Is it true that IC50 reported for `O=c1[nH]c(-c2ccc(-c3ccc(B(O)O)cn3)cc2)nc2c1CSCC2` is less than 10 nM? class 1

Is it true that IC50 reported for `N#Cc1cc(-c2ccc(B(O)O)cc2)ccc1-c1nc2c(c(=O)[nH]1)CSCC2` is less than 10 nM? class 0
